Listing of entries alongside the reported inhibition.
biological target: Tyrosine-protein kinase Yes (Homo sapiens); settings: at 1 µM;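 further: values are mean percent inhibition of YES kinase activity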

Smiles input: CN(C)C(=O)O[C@@H]1CN[C@@H](C#Cc2cc3ncnc(Nc4ccc(OCc5cccc(F)c5)c(Cl)c4)c3s2)C1
inhibition (%): 5.24

Smiles input: c1ccc(Nc2ncc(-c3ccccc3)o2)cc1
inhibition (%): 6.64

Smiles input: O=C(Nc1ccc(Oc2ccc3[nH]c(NC(=O)c4ccco4)nc3c2)cc1)Nc1cc(C(F)(F)F)ccc1F
inhibition (%): 21.9

Smiles input: NS(=O)(=O)c1cccc(-c2cc3ccncc3cc2OCc2ccccc2)c1
inhibition (%): 2.73

Smiles input: Cc1ccc(NC(=O)CC2CC2)cc1-c1ccc(C(=O)NCC2CC2)cc1
inhibition (%): 2.46

Smiles input: COc1cccc(-n2nc(C)c3c(N/N=C(\C)c4ccncc4)ncnc32)c1
inhibition (%): 0.82

Smiles input: Nc1nccc(-c2c(-c3ccc(F)cc3)nn3cc(C(F)(F)F)ccc23)n1
inhibition (%): 1.92

Smiles input: Cc1cc(O)cc(C)c1/C=C/c1cncc(C(=O)N(C)C)c1
inhibition (%): 1.22

Smiles input: CCn1c(-c2nonc2N)nc2ccc(F)cc21
inhibition (%): 8.39

Smiles input: CN1CCN(C(=O)c2ccc(NC(=O)Nc3ccc(N(C)c4ccnc(Nc5ccc(CS(C)(=O)=O)cc5)n4)cc3)cc2)CC1
inhibition (%): 16.2

Smiles input: NS(=O)(=O)c1ccc(NC=C2C(=O)Nc3ccc4ncsc4c32)cc1
inhibition (%): 41.5

Smiles input: Cc1ccc(C(=O)NC2CC2)cc1-c1ccc2[nH]ncc2c1
inhibition (%): -0.56

Smiles input: O=C1Nc2ccccc2/C1=C/Nc1ccc2[nH]c(=O)[nH]c2c1
inhibition (%): 27.2

Smiles input: Nc1nccc(C#Cc2cncnc2Nc2ccc(OCc3cccc(F)c3)c(Cl)c2)n1
inhibition (%): 5.85

Smiles input: CC(C)c1ccc2c(c1)NC(=O)/C2=N/Nc1ccc(S(N)(=O)=O)cc1
inhibition (%): 9.19

Smiles input: c1ccc(Cc2nc3ccc(Nc4ncnc5ccccc45)cc3[nH]2)cc1
inhibition (%): 9.72

Smiles input: NS(=O)(=O)c1ccc(-c2cc3ccncc3cc2OCc2ccccc2)cc1
inhibition (%): 3.16

Smiles input: COC(=O)c1ccc2c(c1)C(=Cc1cc(Br)c(O)c(Br)c1)C(=O)N2
inhibition (%): 12.2

Smiles input: O=S(=O)(CCOCc1ccc(-c2ccc3ncnc(Nc4ccc(OCc5cccc(F)c5)c(Cl)c4)c3c2)o1)c1ccccc1
inhibition (%): 2.61

Smiles input: CCn1c(-c2nonc2N)nc2c(C#CC(C)(C)O)nc(OCCNC)cc21
inhibition (%): 3.28

Smiles input: Nc1nccc(-c2c(-c3ccc(F)cc3)ncn2CCCN2CCOCC2)n1
inhibition (%): 9.05

Smiles input: CN(C)C(=O)O[C@H]1CN[C@H](C#Cc2cc3ncnc(Nc4ccc(OCc5cccc(F)c5)c(Cl)c4)c3s2)C1
inhibition (%): 3.86

Smiles input: Cc1ccc2c(-c3ccnc(Nc4cccc(C(F)(F)F)c4)n3)c(-c3ccccc3)nn2n1
inhibition (%): 91.8

Smiles input: COc1ccc2ncnc(Nc3ccc(OCc4ccccc4)cc3)c2c1
inhibition (%): 22.9

Smiles input: COc1cc2ncnc(Nc3ccc4c(cnn4Cc4ccccc4)c3)c2cc1OC
inhibition (%): 79.9

Smiles input: Cc1cc(Cl)cc2c1NC(=O)C2=NNc1ccc(S(N)(=O)=O)cc1
inhibition (%): 2.2

Smiles input: CS(=O)(=O)Nc1cccc(-c2ccc3c(NC(=O)C4CC4)n[nH]c3c2)c1
inhibition (%): 2.86

Smiles input: COC(=O)c1cncc(/C=C/c2c(C)cc(O)cc2C)c1
inhibition (%): 18.8

Smiles input: N#Cc1cccc(Nc2nccc(-c3cnn4ncccc34)n2)c1
inhibition (%): 37

Smiles input: Cc1nc(-c2ccccc2)n2nc(NCCCN3CCOCC3)ncc12
inhibition (%): 6.58

Smiles input: CS(=O)(=O)CCNCc1nc(-c2ccc3ncnc(Nc4ccc(OCc5cccc(C(F)(F)F)c5)cc4)c3c2)cs1
inhibition (%): 3.56

Smiles input: NC(=O)c1sc(-n2cnc3ccccc32)cc1OCc1ccccc1Br
inhibition (%): 7.85

Smiles input: CN(C)CCCn1c(-c2nonc2N)nc2cnccc21
inhibition (%): 0.44

Smiles input: CCS(=O)(=O)c1ccc(OC)c(Nc2nccc(N(C)c3ccc4c(C)n[nH]c4c3)n2)c1
inhibition (%): 73.9
